Reported inhibition values are given for each entry in this list.
Assayed target: Receptor-type tyrosine-protein kinase FLT3 (Homo sapiens);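 note: values are mean percent inhibition of FLT3 kinase activity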
Condition description: at 1 µM
Measured attribute: inhibition (%)

[
  {
    "Item smiles": "Nc1ncc(-c2cccc(S(N)(=O)=O)c2)c2scc(-c3ccc(F)c(Cl)c3)c12",
    "Unit info": "%",
    "Value": 5.98
  },
  {
    "Item smiles": "Cc1cccc2c1NC(=O)/C2=N\\Nc1ccc(S(N)(=O)=O)cc1",
    "Unit info": "%",
    "Value": 8.43
  },
  {
    "Item smiles": "NS(=O)(=O)c1ccc(N/N=C2\\C(=O)Nc3ccc4ncccc4c32)cc1",
    "Unit info": "%",
    "Value": 73.2
  },
  {
    "Item smiles": "CCn1c(-c2nonc2N)nc2c(C#CC(C)(C)O)ncc(OC3CCNCC3)c21",
    "Unit info": "%",
    "Value": 3.82
  },
  {
    "Item smiles": "[O-][S+]1CCN(Cc2ccc(-c3ccc4ncnc(Nc5ccc(OCc6cccc(F)c6)c(Cl)c5)c4c3)o2)CC1",
    "Unit info": "%",
    "Value": 5.03
  }
]

###

Assayed target: cGMP-dependent protein kinase 2 (Homo sapiens) (UniProt Q13237);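 note: reported figure is a mean inhibition value against PRKG2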
Sequence (Q13237 whole entry): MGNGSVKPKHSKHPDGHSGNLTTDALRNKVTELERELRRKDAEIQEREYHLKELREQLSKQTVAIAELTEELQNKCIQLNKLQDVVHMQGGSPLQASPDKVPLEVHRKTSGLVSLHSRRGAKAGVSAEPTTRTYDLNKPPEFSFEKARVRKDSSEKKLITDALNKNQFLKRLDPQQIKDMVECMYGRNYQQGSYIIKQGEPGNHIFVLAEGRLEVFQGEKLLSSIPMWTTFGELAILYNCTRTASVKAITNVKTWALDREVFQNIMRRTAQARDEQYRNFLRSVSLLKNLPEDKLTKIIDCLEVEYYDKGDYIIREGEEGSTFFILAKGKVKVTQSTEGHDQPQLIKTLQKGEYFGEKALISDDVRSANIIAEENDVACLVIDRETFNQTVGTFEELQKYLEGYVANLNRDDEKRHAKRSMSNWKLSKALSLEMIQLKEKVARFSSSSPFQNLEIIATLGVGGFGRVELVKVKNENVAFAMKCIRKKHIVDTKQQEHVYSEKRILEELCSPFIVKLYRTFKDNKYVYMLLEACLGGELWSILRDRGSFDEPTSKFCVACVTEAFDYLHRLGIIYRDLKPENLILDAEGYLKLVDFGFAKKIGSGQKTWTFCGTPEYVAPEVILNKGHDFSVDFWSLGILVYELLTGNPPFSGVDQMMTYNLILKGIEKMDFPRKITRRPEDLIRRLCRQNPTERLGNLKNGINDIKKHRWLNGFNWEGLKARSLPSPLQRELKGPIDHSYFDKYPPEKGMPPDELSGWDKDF
Condition description: at 0.1 µM
# inhibition listing for each entry below
Measured attribute: inhibition

[
  {
    "Item smiles": "Cc1cccc(Nc2ncc(-c3ccccc3)o2)c1",
    "Measured attribute": "inhibition",
    "Value": "6.06%"
  },
  {
    "Item smiles": "Nc1ncc(-c2cccc(S(N)(=O)=O)c2)c2scc(-c3ccc(F)c(Cl)c3)c12",
    "Measured attribute": "inhibition",
    "Value": "2.34%"
  },
  {
    "Item smiles": "CC(=O)Nc1cccc(C#Cc2cncnc2Nc2ccc(OCc3cccc(F)c3)c(Cl)c2)c1",
    "Measured attribute": "inhibition",
    "Value": "2.86%"
  },
  {
    "Item smiles": "c1ccc(COc2ccc(Nc3ncnc4ccc(-c5ccco5)cc34)cc2)cc1",
    "Measured attribute": "inhibition",
    "Value": "0.02%"
  },
  {
    "Item smiles": "Cc1cccc2c1NC(=O)/C2=N\\Nc1ccc(S(N)(=O)=O)cc1",
    "Measured attribute": "inhibition",
    "Value": "3.15%"
  },
  {
    "Item smiles": "NS(=O)(=O)c1ccc(Nc2ncc(-c3ccccc3)o2)cc1",
    "Measured attribute": "inhibition",
    "Value": "2.69%"
  },
  {
    "Item smiles": "[O-][S+]1CCN(Cc2ccc(-c3ccc4ncnc(Nc5ccc(OCc6cccc(F)c6)c(Cl)c5)c4c3)o2)CC1",
    "Measured attribute": "inhibition",
    "Value": "3.53%"
  },
  {
    "Item smiles": "NC(=O)c1sc(-n2cnc3ccc(C(F)(F)F)cc32)cc1OCc1ccccc1Br",
    "Measured attribute": "inhibition",
    "Value": "2.01%"
  },
  {
    "Item smiles": "N#Cc1c(NC(=O)c2ccc(F)cc2)sc2c1CCCC2",
    "Measured attribute": "inhibition",
    "Value": "-0.45%"
  },
  {
    "Item smiles": "CNC(=O)c1cncc(/C=C/c2ccccc2Cl)c1",
    "Measured attribute": "inhibition",
    "Value": "2.05%"
  }
]

###

Assayed target: Protein kinase C beta type (Homo sapiens);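 note: mean inhibition value, enzyme form tested was the PKC-beta1 splice variant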
Condition description: at 1 µM
Description: GSK_PKIS: PKC-beta1 (splice variant) mean inhibition at 1 uM [Nanosyn]

[
  {
    "Item smiles": "Fc1ccc(-c2nn3ccccc3c2-c2ccncc2)cc1",
    "Assayed target": "Protein kinase C beta type (Homo sapiens)",
    "Unit info": "%",
    "inhibition": 37.8
  },
  {
    "Item smiles": "Fc1ccc(-c2cc(-c3c[nH]nc3-c3ccccn3)ccn2)cc1",
    "Assayed target": "Protein kinase C beta type (Homo sapiens)",
    "Unit info": "%",
    "inhibition": 3.1
  },
  {
    "Item smiles": "Cc1ccc(O)cc1Nc1ccnc2cc(-c3ccccn3)ccc12",
    "Assayed target": "Protein kinase C beta type (Homo sapiens)",
    "Unit info": "%",
    "inhibition": 0.21
  },
  {
    "Item smiles": "FC(F)(F)c1cccc(-c2nn3ncccc3c2-c2ccnc(Nc3ccc4c(c3)OCCO4)n2)c1",
    "Assayed target": "Protein kinase C beta type (Homo sapiens)",
    "Unit info": "%",
    "inhibition": -2.34
  },
  {
    "Item smiles": "COc1ccc(-c2nn3ncccc3c2-c2ccnc(Nc3ccc4c(c3)OCCO4)n2)cc1",
    "Assayed target": "Protein kinase C beta type (Homo sapiens)",
    "Unit info": "%",
    "inhibition": 3.69
  },
  {
    "Item smiles": "COc1ccc(-c2cc(-c3c[nH]nc3-c3ccccn3)ccn2)cc1",
    "Assayed target": "Protein kinase C beta type (Homo sapiens)",
    "Unit info": "%",
    "inhibition": 3.92
  },
  {
    "Item smiles": "CCn1c(-c2nonc2N)nc2c(C#CC(C)(C)O)ncc(OC3CCNCC3)c21",
    "Assayed target": "Protein kinase C beta type (Homo sapiens)",
    "Unit info": "%",
    "inhibition": 73.2
  },
  {
    "Item smiles": "COc1cc(Nc2nccc(Nc3ccc4c(C)n[nH]c4c3)n2)cc(OC)c1OC",
    "Assayed target": "Protein kinase C beta type (Homo sapiens)",
    "Unit info": "%",
    "inhibition": 1.99
  },
  {
    "Item smiles": "c1cc(-c2cnn3nc(N4CCOCC4)ccc23)nc(NC2CC2)n1",
    "Assayed target": "Protein kinase C beta type (Homo sapiens)",
    "Unit info": "%",
    "inhibition": -0.77
  },
  {
    "Item smiles": "Nc1nc(-c2cccc(Cl)c2)c(-c2ccc3ncccc3n2)s1",
    "Assayed target": "Protein kinase C beta type (Homo sapiens)",
    "Unit info": "%",
    "inhibition": 4.87
  },
  {
    "Item smiles": "Cc1cccc(Nc2ncc(-c3ccccc3)o2)c1",
    "Assayed target": "Protein kinase C beta type (Homo sapiens)",
    "Unit info": "%",
    "inhibition": 5.79
  }
]

###

Assayed target: Casein kinase I isoform gamma-2 (Homo sapiens) (UniProt P78368);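 note: values are mean inhibition figures reported as part of the GSK PKIS dataset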
Sequence (P78368 whole entry, looked up, canonical isoform): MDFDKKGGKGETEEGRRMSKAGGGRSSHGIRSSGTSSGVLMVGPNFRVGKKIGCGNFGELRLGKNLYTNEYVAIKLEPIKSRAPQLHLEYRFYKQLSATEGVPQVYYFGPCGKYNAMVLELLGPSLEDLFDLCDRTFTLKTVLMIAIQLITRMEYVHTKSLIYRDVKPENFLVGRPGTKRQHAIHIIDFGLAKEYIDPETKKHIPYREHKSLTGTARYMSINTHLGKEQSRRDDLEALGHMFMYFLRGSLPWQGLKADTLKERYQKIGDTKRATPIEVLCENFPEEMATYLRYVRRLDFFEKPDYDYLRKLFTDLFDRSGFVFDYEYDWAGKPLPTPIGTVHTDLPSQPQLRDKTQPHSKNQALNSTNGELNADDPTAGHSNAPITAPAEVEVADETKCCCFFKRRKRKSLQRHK
Condition description: at 0.1 µM

[
  {
    "Item smiles": "COc1cc(Nc2nccc(Nc3ccc4c(C)n[nH]c4c3)n2)cc(OC)c1OC",
    "Assayed target": "Casein kinase I isoform gamma-2 (Homo sapiens) (UniProt P78368)",
    "inhibition": "-0.28%"
  },
  {
    "Item smiles": "COC(=O)Nc1nc2ccc(Oc3ccc(NC(=O)Nc4cccc(Cl)c4)cc3)cc2[nH]1",
    "Assayed target": "Casein kinase I isoform gamma-2 (Homo sapiens) (UniProt P78368)",
    "inhibition": "0.75%"
  },
  {
    "Item smiles": "[O-][S+]1CCN(Cc2ccc(-c3ccc4ncnc(Nc5ccc(OCc6cccc(F)c6)c(Cl)c5)c4c3)o2)CC1",
    "Assayed target": "Casein kinase I isoform gamma-2 (Homo sapiens) (UniProt P78368)",
    "inhibition": "3.65%"
  },
  {
    "Item smiles": "O=C(O[C@H]1CN[C@H](C#Cc2cc3ncnc(Nc4ccc(Cc5ccccc5)cc4)c3s2)C1)N1CCOCC1",
    "Assayed target": "Casein kinase I isoform gamma-2 (Homo sapiens) (UniProt P78368)",
    "inhibition": "2.49%"
  },
  {
    "Item smiles": "CCCN(CCS(C)(=O)=O)Cc1ccc(-c2ccc3ncnc(Nc4ccc(OCc5cccc(F)c5)c(Cl)c4)c3c2)o1",
    "Assayed target": "Casein kinase I isoform gamma-2 (Homo sapiens) (UniProt P78368)",
    "inhibition": "0.76%"
  },
  {
    "Item smiles": "COc1ccc(-c2nn3ncccc3c2-c2ccnc(Nc3ccc4c(c3)OCCO4)n2)cc1",
    "Assayed target": "Casein kinase I isoform gamma-2 (Homo sapiens) (UniProt P78368)",
    "inhibition": "1.93%"
  },
  {
    "Item smiles": "Cc1ccc2c(-c3ccnc(Nc4ccccc4)n3)c(-c3ccc(F)cc3)nn2n1",
    "Assayed target": "Casein kinase I isoform gamma-2 (Homo sapiens) (UniProt P78368)",
    "inhibition": "5.54%"
  },
  {
    "Item smiles": "Nc1nc(-c2ccc(F)cc2)c(-c2ccc3ncccc3n2)s1",
    "Assayed target": "Casein kinase I isoform gamma-2 (Homo sapiens) (UniProt P78368)",
    "inhibition": "3.47%"
  },
  {
    "Item smiles": "FC(F)(F)c1cccc(-c2nn3ncccc3c2-c2ccnc(Nc3ccc4c(c3)OCCO4)n2)c1",
    "Assayed target": "Casein kinase I isoform gamma-2 (Homo sapiens) (UniProt P78368)",
    "inhibition": "1.92%"
  }
]
